Every entry's value here was drawn from PubChem BioAssay.

Recorded fluorescence slope, one value per entry.
# test_system: Muscarinic acetylcholine receptor M4 (Homo sapiens)
# test_name: M4-linked GIRK flux change, two-sided – cell-based, HEK293 M4/GIRK, thallium flux, BTC-AM, M4 allosteric agonist project, primary screen (AID 625);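 also: thallium influx through GIRK channels coupled to M4 in HEK293 cells with BTC-AM dye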
# measurement_parameters: at 10 µM, actives lie on both sides
Number only, no unit.

- molecule: "Cc1cc(NC(=O)COC(=O)c2cccc(S(=O)(=O)N3CCOCC3)c2)no1"
  quantitative_result: 0.00706

Prompt: Fill in the blank: the reported fluorescence slope of Cc1cccc(N2CCN(C(=O)c3cc4c(=O)[nH]c5ccccc5c4n3C)CC2)c1C is ____.
Completion: 0.00424

Prompt: Which fluorescence slope is reported for this molecule? Cc1cccc(NC(=O)c2cc3n(n2)C(C(F)(F)F)CC(c2ccc4c(c2)OCO4)N3)c1 (stereo unspecified)
Completion: 0.00563

Prompt: Which fluorescence slope value belongs to COc1cc(-c2noc(-c3cccc(Cl)c3)n2)cc(OC)c1OC ?
Completion: 0.00623

Prompt: Give its fluorescence slope value. Item: CCOC(=O)C(Oc1ccc(=O)[nH]n1)C(C)=O (stereo unspecified)
Completion: 0.00606

Prompt: // query fluorescence slope value for entry Cc1cc(C)nc(N2CCC(C(=O)NCc3cccc(C(F)(F)F)c3)CC2)n1
Completion: 0.00567

Prompt: Bench note: what fluorescence slope did O=C(CSc1nnc(-c2cccnc2)o1)Nc1ccccn1 show?
Completion: 0.0082

Prompt: For the molecule Cn1cc(CC(=O)Nc2cccc(C#N)c2)c2ccccc21 , what fluorescence slope is on record?
Completion: 0.00535

Prompt: Suppose we examine the molecule Cc1c(C(=O)OC(C)C)[nH]c2c1C(=O)CCC2 ; what fluorescence slope value has been reported?
Completion: 0.00589

Prompt: So what's the measured fluorescence slope for this one? CCOC(=O)c1[nH]c(C)c(C(=O)Nc2cc(OC)ccc2OC)c1C
Completion: 0.00644

Prompt: May I ask what fluorescence slope has been recorded for CC(C)CCNC(=O)NC(=O)CSc1nnc(COc2ccccc2Cl)o1 ?
Completion: 0.00525

----------
# test_name: inhibitors of TNFa-induced NFkB p65 translocation, primary screen, imaging, HUVEC, MLSMR starter and 10KST1 sets (AID 438);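 also: compound added about 3h40 before a 20 min TNFalpha stimulation; signal is the nuclear over cytoplasmic p65 intensity ratio per well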
# measurement_parameters: HUVEC TNFa-induced p65 nuclear translocation; at 2 µM, stronger effect = higher value, 0% TNFa-plus-vehicle, 100% no-TNFa wells
As shown below, each of these compounds has a reported inhibition value.
Give the value in % but do not write % after it.

Answered cases to consult:
- compound: "COCCn1c(N)c(C(=O)Nc2sc3c(c2C(=O)OC)CCCC3)c2nc3ccccc3nc21"
  quantitative_result: 14.9
- compound: "c1ccc2c3nnc4n(c-3nc2c1)CCCS4"
  quantitative_result: 4.1
- compound: "O=C(COc1ccc2c(c1)OCO2)NC12CC3CC(CC(C3)C1)C2"
  quantitative_result: -3.7
- compound: "Cc1ccc(Cn2nnc3c(=O)n(CC(=O)NCC4CCCO4)cnc32)cc1 (stereo unspecified)"
  quantitative_result: -13.6
- compound: "O=C(O)CCCNS(=O)(=O)c1ccc(NCc2ccccc2)c(C(=O)O)c1"
  quantitative_result: 6.7

Prompt: Bench note: what inhibition did Cc1cccc(C(=O)N2CCN(C(=O)c3cccc(C)c3)C(C)C2)c1 (stereo unspecified) show?
Completion: -3.8

Prompt: Could you tell me which inhibition is on file for Cc1nc(N2CCOCC2)[nH]c(=O)c1CCC(C)C ?
Completion: -3.4

Prompt: Tell me the measured inhibition of COCCOC(=O)C1=C(C)Nc2ncnn2C1c1ccc(F)cc1 (stereo unspecified) , please.
Completion: -0.4

Prompt: Look up inhibition: CCc1ccc(NS(=O)(=O)c2cccs2)cc1
Completion: 4.3

Prompt: Quick check: inhibition of CCS(=O)(=O)N1CCC(C(=O)NCc2cccs2)CC1 ?
Completion: -5.9

Prompt: # input compound: COc1cccc2cc(C(=O)N3CCc4ccccc43)c(=O)oc12 ; wanted: its inhibition
Completion: 4.3
